# credit: paper PMC7203682

Assay: blood compound concentrations in mice
Type: in vivo, C57BL/6 mice
Conditions: C57BL/6, blood, ip; mouse, 8 mg/kg BID i.p.; read-out: [Mepazine] blood at 1h (peak)
RECORDED_METRIC: concentration at 1 h (nM)
Numbers only, in nM.

The molecule identified as CN1CCCC(CN2c3ccccc3Sc3ccccc32)C1 (stereo not shown) registered its concentration at 1 h at 270

###

Target: MALT1 (Canis lupus familiaris, UniProt A0A8I3RR14)
Sequence (A0A8I3RR14 1-857): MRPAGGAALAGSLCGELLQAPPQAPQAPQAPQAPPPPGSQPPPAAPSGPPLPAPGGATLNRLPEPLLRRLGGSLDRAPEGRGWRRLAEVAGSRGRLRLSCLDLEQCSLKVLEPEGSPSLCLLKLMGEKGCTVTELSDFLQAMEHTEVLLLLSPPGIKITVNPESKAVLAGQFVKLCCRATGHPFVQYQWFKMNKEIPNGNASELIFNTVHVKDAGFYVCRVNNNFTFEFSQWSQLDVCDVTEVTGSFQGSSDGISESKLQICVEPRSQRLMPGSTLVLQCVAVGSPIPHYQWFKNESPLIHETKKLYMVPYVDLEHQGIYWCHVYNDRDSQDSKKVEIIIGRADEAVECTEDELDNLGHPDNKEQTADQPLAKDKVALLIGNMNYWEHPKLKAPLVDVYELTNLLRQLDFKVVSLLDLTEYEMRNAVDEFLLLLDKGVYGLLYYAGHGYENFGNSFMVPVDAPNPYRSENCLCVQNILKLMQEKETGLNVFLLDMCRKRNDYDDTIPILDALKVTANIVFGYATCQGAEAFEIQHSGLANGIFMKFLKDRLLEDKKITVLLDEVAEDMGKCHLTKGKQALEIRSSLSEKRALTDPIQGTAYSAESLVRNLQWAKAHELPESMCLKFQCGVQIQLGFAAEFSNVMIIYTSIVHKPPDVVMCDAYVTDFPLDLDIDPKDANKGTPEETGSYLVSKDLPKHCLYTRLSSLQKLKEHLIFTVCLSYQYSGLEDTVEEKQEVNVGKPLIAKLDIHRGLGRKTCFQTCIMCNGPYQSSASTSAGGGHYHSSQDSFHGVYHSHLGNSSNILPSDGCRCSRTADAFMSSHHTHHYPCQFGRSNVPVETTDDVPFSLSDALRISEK
RECORDED_METRIC: IC50 (nM)
Give bare numbers, in nM.

The compound identified as CO[C@@H](C)c1c(NC(=O)Nc2ccnc(C(F)(F)F)c2)cnc2cc(Cl)nn12 registered its IC50 at 92

###

Experiment: blood compound concentrations in mice
Format: in vivo, C57BL/6 mice
Conditions: C57BL/6, blood, ip; mouse, 16 mg/kg QD i.p.; read-out: [Mepazine] blood at 1h (peak)
RECORDED_METRIC: concentration at 1 h (nM)
Give bare numbers, in nM.

The molecule identified as CN1CCCC(CN2c3ccccc3Sc3ccccc32)C1 (stereo not shown) registered its concentration at 1 h at 770
